test_target: UniProt:P32300
Sequence (P32300 whole entry): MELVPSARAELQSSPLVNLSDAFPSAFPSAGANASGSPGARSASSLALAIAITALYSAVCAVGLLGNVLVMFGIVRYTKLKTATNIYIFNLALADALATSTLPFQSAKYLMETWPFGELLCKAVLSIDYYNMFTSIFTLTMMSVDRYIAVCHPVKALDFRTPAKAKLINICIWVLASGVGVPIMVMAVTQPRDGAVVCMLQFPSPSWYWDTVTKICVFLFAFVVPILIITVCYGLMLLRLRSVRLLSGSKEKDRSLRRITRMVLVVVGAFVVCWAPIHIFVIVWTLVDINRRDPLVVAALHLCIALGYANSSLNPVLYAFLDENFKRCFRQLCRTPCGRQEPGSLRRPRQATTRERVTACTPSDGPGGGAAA
reported_property: Ki (nM)
Reply with just the number (in nM).

Oc1ccc2c3c1O[C@H]1c4[nH]c5ccccc5c4C[C@@]4(O)[C@@H](C2)N(CC2CC2)CC[C@]314 ... 0.79

Kindly consider the entry below.
Give Ki (UniProt:P32300) of the following compound: Oc1ccc2c3c1O[C@H]1c4oc5ccccc5c4C[C@@]4(O)[C@@H](C2)N(CC2CC2)CC[C@]314 0.14
